Test Settings: 300.15 K; 101.33 kPa; Liquid
Endpoint Label: mass density (kg/m3)

CCOCCOCCOCC :: 899.95
ClCCCl :: 1242.69
COCCOC :: 859.12
COCCOCCOC :: 936.81

----------
Test Settings: 296.15 K; 101.33 kPa; Liquid
Endpoint Label: mass density (kg/m3)

COCCOCCOC :: 940.79

a = ClCCCl
b = COCCOC
Between a and b , which one shows the smaller mass density number? Kindly state the label of the option you pick. b
(b: 863.51 kg/m3, a: 1248.52 kg/m3)

----------
Test Settings: 301.15 K; 101.33 kPa; Liquid
Endpoint Label: mass density (kg/m3)

These solved cases illustrate the format of a correct answer.
COCCOCCOC :: 935.81
CCOCCOCCOCC :: 898.98

a = ClCCCl
b = COCCOC
Hi there, can you help? I need to know whether a or b has lower measured mass density. Respond using the label that marks the chosen record. b

----------
Test Settings: 316.15 K; 101.33 kPa; Liquid
Endpoint Label: mass density (kg/m3)

In the examples that follow, each entry is paired with its recorded mass density.
CCOCCOCCOCC [diethylene glycol diethyl ether] :: 884.46
COCCOCCOC [2,5,8-trioxanonane] :: 920.8

A = ClCCCl [1,2-dichloroethane]
B = COCCOC [1,2-dimethoxyethane]
Compare the recorded mass density of A and B ; state which is larger. Reply briefly: the label of your chosen item. A
(A: 1219.13 kg/m3, B: 841.29 kg/m3)

----------
Test Settings: 283.15 K; 101.33 kPa; Liquid
Endpoint Label: mass density (kg/m3)

COCCOCCOC :: 953.66
CCOCCOCCOCC :: 916.36

a = ClCCCl
b = COCCOC
Compare mass density: is it lower for a or for b ? // respond with label for picked entry b
(b: 877.64 kg/m3, a: 1267.39 kg/m3)

----------
Test Settings: 303.15 K; 101.33 kPa; Liquid
Endpoint Label: mass density (kg/m3)

ClCCCl :: 1238.29
COCCOC :: 855.8
CCOCCOCCOCC :: 897.05
COCCOCCOC :: 933.82

----------
Test Settings: 313.15 K; 101.33 kPa; Liquid
Endpoint Label: mass density (kg/m3)

Some solved cases for reference:
CCOCCOCCOCC :: 887.37
COCCOCCOC :: 923.82

I = COCCOC
II = ClCCCl
Lab note: check whether I or II shows the higher recorded mass density. Pick one; state its label. II
(II: 1223.57 kg/m3, I: 844.67 kg/m3)

----------
Test Settings: 310.15 K; 101.33 kPa; Liquid
Endpoint Label: mass density (kg/m3)

COCCOC :: 848.02
CCOCCOCCOCC :: 890.28
ClCCCl :: 1228
COCCOCCOC :: 926.83

----------
Test Settings: 329.15 K; 101.33 kPa; Liquid
Endpoint Label: mass density (kg/m3)

ClCCCl :: 1199.7
COCCOC :: 826.48
CCOCCOCCOCC :: 871.84
COCCOCCOC :: 907.65

----------
Test Settings: 312.15 K; 101.33 kPa; Liquid
Endpoint Label: mass density (kg/m3)

COCCOC :: 845.79
ClCCCl :: 1225.05
CCOCCOCCOCC :: 888.34
COCCOCCOC :: 924.82
